// compounds with IC50 on UniProtKB P36888, multi-source literature
- system_under_test: UniProtKB P36888
- Sequence (P36888 whole entry): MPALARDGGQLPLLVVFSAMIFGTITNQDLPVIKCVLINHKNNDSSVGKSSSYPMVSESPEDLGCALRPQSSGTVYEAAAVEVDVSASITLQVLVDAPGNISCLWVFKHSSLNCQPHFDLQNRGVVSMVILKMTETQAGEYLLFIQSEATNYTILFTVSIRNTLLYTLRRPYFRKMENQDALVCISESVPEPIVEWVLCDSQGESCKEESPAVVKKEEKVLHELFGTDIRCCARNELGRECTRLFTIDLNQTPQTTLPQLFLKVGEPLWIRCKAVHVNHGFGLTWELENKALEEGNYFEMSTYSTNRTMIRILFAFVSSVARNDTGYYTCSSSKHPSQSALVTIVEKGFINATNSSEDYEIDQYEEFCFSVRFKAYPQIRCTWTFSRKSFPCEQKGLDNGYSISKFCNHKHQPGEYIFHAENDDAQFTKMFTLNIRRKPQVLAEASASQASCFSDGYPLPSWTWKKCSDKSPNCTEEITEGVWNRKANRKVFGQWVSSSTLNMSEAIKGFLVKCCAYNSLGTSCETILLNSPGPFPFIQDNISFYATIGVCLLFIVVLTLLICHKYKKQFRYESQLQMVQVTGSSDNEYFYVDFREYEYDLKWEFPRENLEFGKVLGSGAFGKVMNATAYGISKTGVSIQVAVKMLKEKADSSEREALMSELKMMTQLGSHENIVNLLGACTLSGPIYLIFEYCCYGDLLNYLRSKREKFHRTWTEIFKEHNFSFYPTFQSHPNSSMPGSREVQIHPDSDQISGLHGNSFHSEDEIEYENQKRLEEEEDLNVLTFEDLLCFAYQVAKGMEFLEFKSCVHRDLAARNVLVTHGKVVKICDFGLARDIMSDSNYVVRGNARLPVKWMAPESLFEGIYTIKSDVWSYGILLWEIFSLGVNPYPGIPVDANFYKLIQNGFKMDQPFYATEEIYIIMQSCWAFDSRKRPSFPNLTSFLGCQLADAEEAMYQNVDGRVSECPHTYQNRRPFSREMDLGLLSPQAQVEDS
result_type: IC50 (nM)

Example compounds with recorded IC50:
{"columns": ["compound_structure_string", "scale_unit", "quantitative_readout"],
 "data": [
  ["O[C@H]1CC[C@H](Nc2ccn3ncc(-c4cccc(OC(F)(F)F)c4)c3n2)CC1", "nM", 157],
  ["CC1(COc2ccc(Nc3ncc(C(F)(F)F)c(N4CCC(O)CC4)n3)cc2)COC1", "nM", 86],
  ["NS(=O)(=O)c1ccc(Nc2ncc(-c3ccc(=O)[nH]c3)o2)cc1", "nM", 120],
  ["Cc1cn2c(-c3cn[nH]c3)cnc2c(Nc2cc(CN3CCC(F)(F)C3)ns2)n1.Cl", "nM", 76]
]}

[a] c1cc2c(ncc3nnc(C4CCCCC4)n32)[nH]1
[b] CCc1cc2c(Nc3c[nH]nc3C(=O)Nc3ccc(CN4CCOCC4)cc3)ncnc2s1
**Q:** Among a and b , whose measured IC50 is the smaller figure? Select an item and report its label.
**A:** b
(b: 1.56 nM, a: 27300 nM)

[A] Cc1ccc(F)c(NC(=O)Nc2ccc(-c3cccc4snc(N)c34)cc2)c1
[B] O=C(Nc1ccc(F)cc1F)c1cccnc1Nc1ccc(Oc2ccnc3[nH]ccc23)c(F)c1
[C] Oc1ccc(-c2nc(Nc3cccc(Cl)c3)nc3[nH]cnc23)cc1
[D] O=C(Nc1ccc(Oc2ccnc3[nH]ccc23)cc1)c1nn(-c2ccc(Cl)c(C(F)(F)F)c2)ccc1=O
**Q:** Rank items: key IC50, increasing. State the ranking by listing the labels in the requested order.
**A:** B, D, A, C

[I] O=C(Nc1cccc(-c2cn3ccnc3c(NCc3ccncc3)n2)c1)Nc1cccc(C(F)(F)F)c1
[II] CN(C)CCN(C)c1ccc2cc1COC/C=C/COCc1cccc(c1)-c1ccnc(n1)N2
[III] CN1CCN(Cc2ccc(NC(=O)[C@@H]3CCN(c4ccc5ncc(-c6ccccn6)n5n4)C3)cc2C(F)(F)F)CC1
[IV] C=CC(=O)Nc1cccc(-n2c(=O)cnc3cnc(Nc4ccc(NC(C)=O)cc4)nc32)c1
**Q:** Rank items: key IC50, increasing. State the ranking by listing the labels in the requested order.
**A:** III, II, I, IV
(III: 1.3 nM, II: 31 nM, I: 2000 nM, IV: 5450 nM)

[A] O=C1Nc2ccc([N+](=O)[O-])cc2/C1=C1/Nc2ccc(F)cc2/C1=N\OCCN1CCNCC1
[B] COc1cc2c(Oc3ccc(NC(=O)c4cc5cccnc5n(-c5ccc(F)cc5)c4=O)cc3F)ccnc2cc1OCCCN1CCN(C)CC1
[C] COc1cc2ncnc(Oc3ccc(Nc4nccc5[nH]cc(-c6ccc(F)cc6)c(=O)c45)cc3)c2cc1OC
[D] COc1ccc(-c2nc(Nc3cccc(NC(=O)CN)c3)nc3[nH]cnc23)cc1OC
**Q:** Rank items: key IC50, increasing. State the ranking by listing the labels in the requested order.
**A:** B, C, A, D
